- METHOD NOTES: Thermal stability (Protein Thermal Shift assay)
- Format: physicochemical
- STUDY CONDITIONS: VHH domains, first derivative analysis
MEASURED QUANTITY: Tm (°C)
Express the result in °C but write the number alone.

As a guide, the following entries are already answered.
{"MOLECULE": "F08: ALPP/ALPPL2 targeting VHH domain, SEQ ID NO: 35 (protein) VHH: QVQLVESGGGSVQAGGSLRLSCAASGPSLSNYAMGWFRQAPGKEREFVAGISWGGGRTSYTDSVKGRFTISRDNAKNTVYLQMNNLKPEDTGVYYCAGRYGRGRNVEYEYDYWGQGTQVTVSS", "MEASURED": 77.6}
{"MOLECULE": "D11: ALPP targeting VHH domain, SEQ ID NO: 29 (protein) VHH: QVQLVESGGGSVQAGGSLRLSCAASGPSLSNYAMGWFRQAPGKEREFVAGISWGGGRTSYTDSVKGRFTISRDNAKNTVYLQMNNLKPEDTGVYYCAGRYGRGRNVEYEYDYWGQGTMVTVSS", "MEASURED": 78.1}

Next molecule, Tm to be filled in.
Would you kindly share the measured Tm for E06: ALPP/ALPPL2 targeting VHH domain, SEQ ID NO: 30 (protein) VHH: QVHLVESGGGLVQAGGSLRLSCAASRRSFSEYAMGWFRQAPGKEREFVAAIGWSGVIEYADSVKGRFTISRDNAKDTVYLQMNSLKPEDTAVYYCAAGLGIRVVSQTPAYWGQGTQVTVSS ?
81.1
